Hi, quick share: literature IC50 data for Autotaxin (Homo sapiens, UniProt Q13822), several sources combined.
Answers are plain numbers, in nM.

N#Cc1cc(-c2cc(C(=O)N3CCCC3)ccc2F)c(OCc2n[nH]c3ncccc23)cc1Cl	7
O=C(/C=C/c1ccc(OC(F)(F)F)cc1)N1CC[C@H]2CN(C(=O)c3ccc4[nH]nnc4c3)C[C@H]2C1	93

Okay, next one:
What IC50 appears in the records for this compound with Autotaxin (Homo sapiens, UniProt Q13822)? `O=C(OCc1ccc(OC(F)(F)F)cc1)N1C[C@@H]2CN(C(=O)c3ccc(O)cc3)C[C@H]2C1`
13

---

Collected set of IC50 measured with Autotaxin (Homo sapiens) across studies.
Give bare numbers, in nM.

Okay, here is my list. What is IC50 for each of these?
1. O=C(OCc1ccc(OC(F)(F)F)c(F)c1)N1C[C@@H]2CN(C(=O)c3ccc4[nH]nnc4n3)C[C@H]2C1
2. NS(=O)(=O)c1ccc(C(=O)N2C[C@H]3CN(C(=O)/C=C/c4ccc(OC(F)(F)F)cc4)C[C@]3(F)C2)c(F)c1 (relative stereo)
3. CCN(CC)c1nn(CC(=O)N2CCc3[nH]nnc3C2)cc1-c1cnc(NC2Cc3ccccc3C2)nc1

1. 16
2. 5
3. 2.27

---

Reported pIC50 against Autotaxin (Homo sapiens), gathered from multiple publications, appears below.
Numbers only, as −log10 of the molar value.

Cc1cc(OCc2n[nH]c(=O)n2C)c(-c2cc(C#N)ccc2OC(F)(F)F)cc1Cl	7.31
Cc1cc(OCc2cc(C(=O)N3CCCC3)[nH]n2)c(C(C)(C)C)cc1Cl	8.10
Cc1cc(OCc2n[nH]c3ncccc23)c(-c2cc(C(=O)N3CCCC3)ccc2F)cc1Cl	8.22
O=C(OCc1ccc(OC(F)(F)F)cc1)N1C[C@@H]2CN(C(=O)c3ccc(O)cn3)C[C@H]2C1	7.60
O=C(OCc1ccc(OC(F)(F)F)c(Cl)c1)N1CCc2cc(C(=O)N3CCc4[nH]nnc4C3)nn2CC1	8.05

For each entry beneath this line, provide reported pIC50.
1. Cc1cc(OCc2n[nH]c(=O)n2C)c(-c2cc(OCC3CCOCC3)ccc2F)cc1Cl
2. Cc1cc(OCc2n[nH]c(=O)n2C)c(-c2cccc(C(=O)N3CCOCC3)c2)cc1Cl
3. O=C(/C=C/c1ccc(Cl)cc1)N1C[C@H]2CCN(C(=O)c3ccc4[nH]nnc4c3)CC[C@H]2C1
4. O=C(c1cc(OCC2CCOCC2)nc(C2CC2)c1)N1C[C@@H]2CN(C(=O)c3ccc4[nH]nnc4c3)C[C@H]2C1
5. Cc1cc(OC(F)(F)F)ccc1COC(=O)N1CCc2cc(C(=O)N3CCc4[nH]nnc4C3)nn2CC1
6. O=C(c1cnc(OCC2CC2)c(Br)c1)N1C[C@@H]2CN(C(=O)c3ccc4[nH]nnc4c3)C[C@H]2C1
7. O=C(c1cc(OCC2CCOCC2)cc(C2CC2)c1)N1C[C@@H]2CN(C(=O)c3ccc4[nH]nnc4c3)C[C@H]2C1

1. 8.00
2. 7.64
3. 8.05
4. 8.52
5. 7.85
6. 6.16
7. 8.15

---

# literature pull: Autotaxin (Homo sapiens, UniProt Q13822) IC50
One number for each entry, in nM.

Use the examples below as a reference point.
O=C1NC2CCC(C(=O)N3CC4CCN(C(=O)/C=C/c5ccc(OC(F)(F)F)cc5)CCC4C3)CC2O1 (stereo in doubt)	382
CC(C)c1cc(C#N)ccc1CCC(=O)N1C[C@@H]2CN(C(=O)c3ccc4[nH]nnc4c3)C[C@H]2C1	2
Cc1cc(OCc2n[nH]c(=O)n2C)c(-c2cc(OCC3CCOC3)ccc2F)cc1Cl (stereo not shown)	6
CCc1nc2ccc(-c3ccc(CC(=O)N4CC(O)C4)cc3)cn2c1N(C)c1nc(-c2ccc(F)cc2)c(C#N)s1	30
O=C(c1cnc(NC2CCOCC2)c(C2CC2)c1)N1C[C@@H]2CN(C(=O)c3ccc4[nH]nnc4c3)C[C@H]2C1	40

Each molecule below has a recorded value; state its IC50.
1. NS(=O)(=O)c1ccc(C(=O)N2C[C@H]3CN(C(=O)c4cc(OCC5CCOCC5)nc(C5CC5)c4)C[C@@H]3C2)nc1
2. COCCN(C)C(=O)c1ccc(F)c(-c2cc(Cl)c(C)cc2OCc2n[nH]c(=O)n2C)c1
3. O=C(/C=C/c1ccccc1C1CC1)N1CC[C@@H]2CN(C(=O)c3ccc4[nH]nnc4c3)C[C@@H]2CC1

6
9
8

// for each molecule in input: emit IC50
1. O=C1CC(C(=O)N2C[C@@H]3[C@H]4CN(C(=O)c5ccc6[nH]nnc6c5)C[C@H]4[C@@H]3C2)Cc2ccccc21 (stereo partly shown)
2. NS(=O)(=O)c1ccc(C(=O)N2C[C@H]3CN(C(=O)/C=C/c4ccc(OC(F)(F)F)cc4)C[C@@H]3C2)cc1
3. COCCOc1cc(C(=O)N2C[C@@H]3[C@H](C2)[C@H]2CN(C(=O)c4ccc5[nH]nnc5c4)C[C@@H]32)cc2ccccc12
4. Nc1ccc(C(=O)N2CC3(CCN(C(=O)CCc4cc(Cl)cc(Cl)c4)CC3)C2)cc1O
5. CC(=O)Nc1ccc(C(=O)N2C[C@H]3CN(C(=O)OCc4cc(Cl)cc(Cl)c4)C[C@H]3C2)cc1

[538, 7.5, 4, 1040, 342]
